conditions: 323.15 K; 4000 kPa; Liquid; vibrating tube
Measured mass density of individual entries
// units = kg/m3; emit number, no label

# compound, result-number
records = [
    ("CCCCCCCC[n+]1ccn(C)c1.F[B-](F)(F)F [1-methyl-3-octylimidazolium tetrafluoroborate]", 1089.6),
    ("CCCCCCn1cc[n+](C)c1.F[B-](F)(F)F [1-hexyl-3-methylimidazolium tetrafluoroborate]", 1130.36),
    ("CCCCn1cc[n+](C)c1.F[B-](F)(F)F [1-butyl-3-methylimidazolium tetrafluoroborate]", 1185.97),
]

Now take the following compound into account.
Query string: Value lookup for mass density; key = CCn1cc[n+](C)c1.F[B-](F)(F)F [1-ethyl-3-methylimidazolium tetrafluoroborate]
Result string: 1268.52

----------
settings: 303.15 K; 14000 kPa; Liquid; vibrating tube
Measured mass density of individual entries
// units = kg/m3; emit number, no label

# molecule, mass density / kg/m3
measured = [
    ("CCCCCCCC[n+]1ccn(C)c1.F[B-](F)(F)F [1-methyl-3-octylimidazolium tetrafluoroborate]", 1107.96),
    ("CCCCn1cc[n+](C)c1.F[B-](F)(F)F [1-butyl-3-methylimidazolium tetrafluoroborate]", 1204.52),
    ("CCn1cc[n+](C)c1.F[B-](F)(F)F [1-ethyl-3-methylimidazolium tetrafluoroborate]", 1287.82),
]

Now take the following molecule into account.
Query string: Value lookup for mass density; key = CCCCCCn1cc[n+](C)c1.F[B-](F)(F)F [1-hexyl-3-methylimidazolium tetrafluoroborate]
Result string: 1148.83

----------
settings: 313.15 K; 10000 kPa; Liquid; vibrating tube
Measured mass density of individual entries
// units = kg/m3; emit number, no label

Use the examples below as a reference point.
# molecule, result-number
data = [
    ("CCCCn1cc[n+](C)c1.F[B-](F)(F)F [1-butyl-3-methylimidazolium tetrafluoroborate]", 1195.75),
    ("CCCCCCn1cc[n+](C)c1.F[B-](F)(F)F [1-hexyl-3-methylimidazolium tetrafluoroborate]", 1140.14),
    ("CCn1cc[n+](C)c1.F[B-](F)(F)F [1-ethyl-3-methylimidazolium tetrafluoroborate]", 1278.61),
]

Query string: Value lookup for mass density; key = CCCCCCCC[n+]1ccn(C)c1.F[B-](F)(F)F [1-methyl-3-octylimidazolium tetrafluoroborate]
Result string: 1099.33

----------
conditions: 288.15 K; 4000 kPa; Liquid; vibrating tube
Measured mass density of individual entries
// units = kg/m3; emit number, no label

Use the examples below as a reference point.
# molecule, mass density / kg/m3
measured = [
    ("CCCCCCn1cc[n+](C)c1.F[B-](F)(F)F [1-hexyl-3-methylimidazolium tetrafluoroborate]", 1154.32),
    ("CCCCn1cc[n+](C)c1.F[B-](F)(F)F [1-butyl-3-methylimidazolium tetrafluoroborate]", 1210.65),
    ("CCCCCCCC[n+]1ccn(C)c1.F[B-](F)(F)F [1-methyl-3-octylimidazolium tetrafluoroborate]", 1113.07),
]

Now take the following molecule into account.
Query string: Value lookup for mass density; key = CCn1cc[n+](C)c1.F[B-](F)(F)F [1-ethyl-3-methylimidazolium tetrafluoroborate]
Result string: 1294.88

----------
conditions: 288.15 K; 20000 kPa; Liquid; vibrating tube
metric-name: mass density (kg/m3)
// units = kg/m3; emit number, no label

# molecule, result-number
data = [
    ("CCn1cc[n+](C)c1.F[B-](F)(F)F [1-ethyl-3-methylimidazolium tetrafluoroborate]", 1301.58),
    ("CCCCCCn1cc[n+](C)c1.F[B-](F)(F)F [1-hexyl-3-methylimidazolium tetrafluoroborate]", 1161.68),
    ("CCCCn1cc[n+](C)c1.F[B-](F)(F)F [1-butyl-3-methylimidazolium tetrafluoroborate]", 1217.71),
]

Now take the following molecule into account.
Query string: Value lookup for mass density; key = CCCCCCCC[n+]1ccn(C)c1.F[B-](F)(F)F [1-methyl-3-octylimidazolium tetrafluoroborate]
Result string: 1120.72

----------
Measured mass density of individual entries
details: 318.15 K; 30000 kPa; Liquid; vibrating tube
// units = kg/m3; emit number, no label

Use the examples below as a reference point.
# compound, mass density / kg/m3
rows = [
    ("CCCCn1cc[n+](C)c1.F[B-](F)(F)F [1-butyl-3-methylimidazolium tetrafluoroborate]", 1201.46),
    ("CCCCCCCC[n+]1ccn(C)c1.F[B-](F)(F)F [1-methyl-3-octylimidazolium tetrafluoroborate]", 1106.06),
    ("CCn1cc[n+](C)c1.F[B-](F)(F)F [1-ethyl-3-methylimidazolium tetrafluoroborate]", 1283.7),
]

Query string: Value lookup for mass density; key = CCCCCCn1cc[n+](C)c1.F[B-](F)(F)F [1-hexyl-3-methylimidazolium tetrafluoroborate]
Result string: 1146.4

----------
settings: 298.15 K; 6000 kPa; Liquid; vibrating tube
Measured mass density of individual entries
// units = kg/m3; emit number, no label

Use the examples below as a reference point.
# molecule, mass density [kg/m3]
records = [
    ("CCCCCCCC[n+]1ccn(C)c1.F[B-](F)(F)F [1-methyl-3-octylimidazolium tetrafluoroborate]", 1107.31),
    ("CCn1cc[n+](C)c1.F[B-](F)(F)F [1-ethyl-3-methylimidazolium tetrafluoroborate]", 1288.13),
    ("CCCCCCn1cc[n+](C)c1.F[B-](F)(F)F [1-hexyl-3-methylimidazolium tetrafluoroborate]", 1148.36),
]

Now take the following molecule into account.
Query string: Value lookup for mass density; key = CCCCn1cc[n+](C)c1.F[B-](F)(F)F [1-butyl-3-methylimidazolium tetrafluoroborate]
Result string: 1204.39

----------
Measured mass density of individual entries
conditions: 283.15 K; 12000 kPa; Liquid; vibrating tube
// units = kg/m3; emit number, no label

Query string: Value lookup for mass density; key = CCCCCCCC[n+]1ccn(C)c1.F[B-](F)(F)F [1-methyl-3-octylimidazolium tetrafluoroborate]
Result string: 1120.25

----------
Measured mass density of individual entries
details: 293.15 K; 50000 kPa; Liquid; vibrating tube
± gives the expanded uncertainty stated by the source.

Use the examples below as a reference point.
# compound, result
records = [
    ("CCCCn1cc[n+](C)c1.F[B-](F)(F)F [1-butyl-3-methylimidazolium tetrafluoroborate]", "1226.61 ± 0.99 kg/m3"),
    ("CCCCCCCC[n+]1ccn(C)c1.F[B-](F)(F)F [1-methyl-3-octylimidazolium tetrafluoroborate]", "1130.56 ± 0.94 kg/m3"),
    ("CCCCCCn1cc[n+](C)c1.F[B-](F)(F)F [1-hexyl-3-methylimidazolium tetrafluoroborate]", "1171.16 ± 0.96 kg/m3"),
]

Now take the following compound into account.
Query string: Value lookup for mass density; key = CCn1cc[n+](C)c1.F[B-](F)(F)F [1-ethyl-3-methylimidazolium tetrafluoroborate]
Result string: 1309.69 ± 1.7 kg/m3

----------
conditions: 303.15 K; 8000 kPa; Liquid; vibrating tube
Measured mass density of individual entries
// units = kg/m3; emit number, no label

Use the examples below as a reference point.
# compound, mass density, kg/m3
measured = [
    ("CCn1cc[n+](C)c1.F[B-](F)(F)F [1-ethyl-3-methylimidazolium tetrafluoroborate]", 1285.26),
    ("CCCCn1cc[n+](C)c1.F[B-](F)(F)F [1-butyl-3-methylimidazolium tetrafluoroborate]", 1201.78),
    ("CCCCCCCC[n+]1ccn(C)c1.F[B-](F)(F)F [1-methyl-3-octylimidazolium tetrafluoroborate]", 1104.97),
]

Now take the following compound into account.
Query string: Value lookup for mass density; key = CCCCCCn1cc[n+](C)c1.F[B-](F)(F)F [1-hexyl-3-methylimidazolium tetrafluoroborate]
Result string: 1145.93

----------
Measured mass density of individual entries
settings: 313.15 K; 14000 kPa; Liquid; vibrating tube
// units = kg/m3; emit number, no label

Use the examples below as a reference point.
# compound, mass density [kg/m3]
rows = [
    ("CCn1cc[n+](C)c1.F[B-](F)(F)F [1-ethyl-3-methylimidazolium tetrafluoroborate]", 1280.39),
    ("CCCCCCCC[n+]1ccn(C)c1.F[B-](F)(F)F [1-methyl-3-octylimidazolium tetrafluoroborate]", 1101.41),
    ("CCCCCCn1cc[n+](C)c1.F[B-](F)(F)F [1-hexyl-3-methylimidazolium tetrafluoroborate]", 1142.09),
]

Query string: Value lookup for mass density; key = CCCCn1cc[n+](C)c1.F[B-](F)(F)F [1-butyl-3-methylimidazolium tetrafluoroborate]
Result string: 1197.1

----------
details: 323.15 K; 10000 kPa; Liquid; vibrating tube
metric-name: mass density (kg/m3)
// units = kg/m3; emit number, no label

Use the examples below as a reference point.
# molecule, metric-name, result-number
records = [
    ("CCCCn1cc[n+](C)c1.F[B-](F)(F)F [1-butyl-3-methylimidazolium tetrafluoroborate]", "mass density", 1188.88),
    ("CCCCCCCC[n+]1ccn(C)c1.F[B-](F)(F)F [1-methyl-3-octylimidazolium tetrafluoroborate]", "mass density", 1092.8),
    ("CCn1cc[n+](C)c1.F[B-](F)(F)F [1-ethyl-3-methylimidazolium tetrafluoroborate]", "mass density", 1271.28),
]

Now take the following molecule into account.
Query string: Value lookup for mass density; key = CCCCCCn1cc[n+](C)c1.F[B-](F)(F)F [1-hexyl-3-methylimidazolium tetrafluoroborate]
Result string: 1133.45
